Tested System: T1, human OX40 on cells (CHO-hOX40, 293HEK-hOX40, Jurkat-hOX40, activated primary CD4+ T cells) (human, UniProt P43489 29-277)
T1 construct: whole, on cells; The cell type is told in each assay; also called CHO-OX40
T1 sequence (looked up): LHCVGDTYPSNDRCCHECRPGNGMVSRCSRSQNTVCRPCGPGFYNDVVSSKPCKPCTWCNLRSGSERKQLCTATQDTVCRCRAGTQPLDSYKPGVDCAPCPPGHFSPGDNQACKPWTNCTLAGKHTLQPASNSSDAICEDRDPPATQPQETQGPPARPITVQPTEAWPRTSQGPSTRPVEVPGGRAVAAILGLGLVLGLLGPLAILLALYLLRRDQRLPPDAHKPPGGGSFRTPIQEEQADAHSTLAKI
Test Protocol: flow cytometry, 293HEK-hOX40, 8 nM
Assay Endpoint: MFI (MFI)
Numeric answer only, unit MFI assumed.

## Task Requested field: MFI. Item: ADI-20113, IgG1 format (antibody, V domains shown, Made in yeast) VH: QVQLVESGGGVVQPGRSLRLSCAASGFTFSSYGMHWVRQAPGKGLEWVAVISYDGSNKYYADSVKGRFTISRDNSKNTLYLQMNSLRAEDTAVYYCARGRPWYSETGTSAFDIWGQGTMVTVSS VL: EIVMTQSPATLSVSPGERATLSCRASQSVSSNLAWYQQKPGQAPRLLIYSASTRATGIPARFSGSGSGTEFTLTISSLQSEDFAVYYCQQHNVYPPYTFGGGTKVEIKR
## Result 2e+06
